target of assay: pooled human IgG (human); also: test concentration or dose not given here
experiment summary: cell-based or functional assay
What Enzyme Activity Endpoint Assay (purified): scIgG was measured for each of the following?
Numbers only, in ng/µL.

Solved cases below.
Entry PRT-215 (enzyme) MEVVEVWPYGQNPNGKTEILSQTEDSESLQRLRDIEDFQAEKKKEGVVYTKWLDGVTVKDHDFRKIVDGNIEYYATPLLNGRGWYDINKDFNRDSDKCAAAVAANMFHYWLDRNRDNVDRFLKQNPEKHGIIELPDGQLKLSDFLNTYESDNGYRDKSKLFDFISKNFNGPVWTDKLLDNYINGYGYNYKYGRTIEDPTKNTSKINFFKKVFNEKILTDIHSIRNQNEFSDLLSEALYTGKAIGLSYGPAGLRHSLGHIISVWGADFDEDGNVVAIYVTDSDDKKLTIGDERVGLKRYKVSTDDEGRARLTAYTETDNTGGQVRGLWTLDTGTQAWADYFDKTEQTGTDQAEQLEHHHHHH needs its Enzyme Activity Endpoint Assay (purified): scIgG filled in; supply it.
309

Entry PRT-206 (enzyme) MEVVEVWPYGQNPNGKTEILSQTEDSESLQRLRDIEDFQAEKKKENVVYTKWLDGVTVKDHDFRKIVDGNIAYYATPLLNGRGFYDINKDFNRDSDKCAAAVAANMFHYWLDINRDNVDRFLRQNPEKHGIIELPDGQLKLSDFLNTYESDDGYRDKSKLFDFISNNFNGPVWTDKLLDNYINGYGYNYKYGRTIEDPTKNTSKINFFKEVFNEKILTDNHSIRDQNEFSDLLSEALYTGKAIGLSYGPAGLRHSLGHIISVWGADLDADGNVVAIYVTDSDDKKLTIGDERVGLKRYKISYDDEGRARLTAYEEKDNTGGQIRGLYTLDTGKQAWADYFDKTEQTGTDQAEQLEHHHHHH needs its Enzyme Activity Endpoint Assay (purified): scIgG filled in; supply it.
0

Entry PRT-216 (enzyme) MEVVEVWPYGQNPNGKTEILSQTEDSESLQRLRDIEDFQAEKKKENVVYTKWLDGVDVDDHDFRKIVDGNTEYYATPLLNGRGWYDINKDFNRDSDKCAAAVAANMFHYWLDQNRDNIDRFLRQSPEKHGIIELPDGQLKLSDFLNTYESDDGYRDKSKLFDFISNNFNGPVWTDKLLDNYINGYGYNYKYGRTIEDPTKNNSKINFFKKVFNGKILTDNHSIRNYNTFSDLLSEALYTGKAIGLSYGPAGLRHSLGHIISVWGADLDADGNVVAIYVTDSDDKKLTIGDERVGLKRYKISYDDENRARLTAYEENDNTGGQIRGLETLDTGKQAWADYFDKTEQTGTDQAEQLEHHHHHH needs its Enzyme Activity Endpoint Assay (purified): scIgG filled in; supply it.
0

Now consider a different binder.
Entry PRT-208 (enzyme) MEVVEVWPYGQNPNGKTEILSQTEDSESLQRLRDIEDFQAEKKKENVVYTKWLDGVTVKDHDFRKIVDGNIAYYATPLLNGRGFYDINKDFNRDSDKCAAAVAANMFHYWLDINRDNVDRFLRQNPEKHGIIELPDGQLKLSDFLNTYESDDGYRDKSKLFDFISNNFNGPVWTDKLLDNYINGYGYNYKYGRTIEDPTKNTSKINFFKEVFNEKILTDNHSIRDQNEFSDLLSEALYTGKAIGLSYGPAGLRHSLGHIISVWGADLDADGNVVAIYVTDSDDKKLTIGDERVGLKRYKISYDDEGRARLTAYEEKDNTGGQIRGLWTLDTGKQAWADYFDKTEQTGTDQAEQLEHHHHHH needs its Enzyme Activity Endpoint Assay (purified): scIgG filled in; supply it.
113

Values were extracted from patent US20250027068A1.
